As shown below, each of these compounds has a reported IC50 value.
Test: Growth inhibition of SV-40 immortalized human ovarian epithelial cells after 72 hrs by SRB assay
Please state the figure in µM; there is no need to write the unit.

Consider the following illustrative entries.
INSERT INTO results (compound, recorded_result) VALUES
  ('Cc1cc(O)cc(C)c1O', 7.8),
  ('CC(C)(C)C1=CC(=O)C(C(C)(C)C)=CC1=O', 117),
  ('Cc1cc(O)c(C(C)C)cc1O', 14),
  ('Cc1cc(O)c(C(C)(C)C)cc1O', 85.6),
  ('CC1=CC(=O)C(N(C)C)=CC1=O', 7.9),
  ('CC1=C(N)C(=O)C(C(C)C)=CC1=O', 139),
  ('CCNC1=C(C)C(=O)C=C(C(C)C)C1=O', 30.3),
  ('CC1=CC(=O)C=C(C)C1=O', 5.3),
  ('CNC1=C(C)C(=O)C=C(C(C)C)C1=O', 36.8),
  ('CC(C)(C)C1=CC(=O)C=CC1=O', 10.3);

Read the next record carefully.
**Q:** Dear colleague, please send me the reported IC50 for Cc1c(O)c(Br)c(C(C)C)c(O)c1Br when you can.
**A:** 11

---

Test: Aqueous solubility of the compound in phosphate buffer at pH 7.4 measured after 24 hrs by HPLC method
Assay type: physicochemical
Quantity: solubility at 24 h (µg/mL)
Please state the figure in µg/mL; there is no need to write the unit.

Consider the following illustrative entries.
INSERT INTO results (compound, recorded_result) VALUES
  ('CC1=CC(=O)C=C(C)C1=O', 5040),
  ('CC1=CC(=O)C(C(C)C)=CC1=O [THYMOQUINONE]', 468);

Read the next record carefully.
**Q:** Dear colleague, please send me the reported solubility at 24 h for CC1=CC(=O)C(N(C)C)=CC1=O when you can.
**A:** 8320

---

System: A2780 (human)
Assay: Selectivity index, ratio of IC50 for SV-40 immortalized human ovarian epithelial cells to IC50 for human A2780 cells
Quantity: selectivity ratio
Answer as a number with no unit attached.

Consider the following illustrative entries.
INSERT INTO assay_data (given_smiles, recorded_result) VALUES
  ('Cc1cc(O)cc(C)c1O', 2.1),
  ('CCNC1=C(C)C(=O)C=C(C(C)C)C1=O', 3.1),
  ('CC1=CC(=O)C=C(C)C1=O', 1.7),
  ('Cc1cc(O)c(C(C)C)cc1O', 4.5);

**Q:** Dear colleague, please send me the reported selectivity ratio for CNC1=C(C)C(=O)C=C(C(C)C)C1=O when you can.
**A:** 5

---

Experiment: Growth inhibition of SV-40 immortalized human ovarian epithelial cells after 72 hrs by SRB assay
As shown below, each of these molecules has a reported pIC50 value.
# reply with the number alone; pIC50 is -log10 of concentration in mol/L

**Q:** Dear colleague, please send me the reported pIC50 for CC1=C(N(C)C)C(=O)C=CC1=O when you can.
**A:** 4.55

---

Experiment: Growth inhibition of SV-40 immortalized human ovarian epithelial cells after 72 hrs by SRB assay
Quantity: pIC50
# reply with the number alone; pIC50 is -log10 of concentration in mol/L

Consider the following illustrative entries.
INSERT INTO results (compound, recorded_result) VALUES
  ('CC1=CC(=O)C(C(C)(C)C)=CC1=O', 4.25),
  ('CC(C)(C)C1=CC(=O)C=C(C(C)(C)C)C1=O', 4.29),
  ('CC1=CC(=O)C=CC1=O', 5.22),
  ('Cc1cc(O)ccc1O [METHYLHYDROQUINONE]', 5.20),
  ('CC1=CC(=O)C(C(C)C)=CC1=O', 4.75);

**Q:** Dear colleague, please send me the reported pIC50 for CC1=CC(=O)C(Nc2ccc(F)cc2)=CC1=O when you can.
**A:** 4.69

**Q:** Dear colleague, please send me the reported pIC50 for CC1=C(Br)C(=O)C(C(C)C)=C(Br)C1=O when you can.
**A:** 5.14

**Q:** Dear colleague, please send me the reported pIC50 for CC1=C(Cl)C(=O)C(C(C)(C)C)=C(Cl)C1=O when you can.
**A:** 5.51

The values you see were collected from ChEMBL document CHEMBL4184306.
